target: T1, Human CD137 ECD (human); experiment: single mutant vs template dBBDu183H
T1 construct: also called 4-1BB
T1 sequence (chain, as listed by the source limits assumed): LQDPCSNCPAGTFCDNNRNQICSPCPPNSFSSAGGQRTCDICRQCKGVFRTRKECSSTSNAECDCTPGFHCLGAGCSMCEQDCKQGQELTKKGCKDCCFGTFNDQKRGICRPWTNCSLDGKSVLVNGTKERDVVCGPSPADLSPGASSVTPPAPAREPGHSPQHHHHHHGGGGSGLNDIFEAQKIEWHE
readoutLabel: fold change of affinity (fold)
Write the answer as a number in fold, unit excluded.

Known results for binders:
binder="H183/L072 VH A54V (antibody, name in Kabat numbering, V domains shown) VH: QVQLVESGGGLVQPGRSLRLSCAASGFTFSNAWMHWVRQAPGKGLEWVAQIKDKGNVYAAYYAPSVKGRFTISRDDSKNSIYLQMNSLKTEDTAVYYCHYVHYASASTVLPAFGVDAWGQGTTVTVSS VL: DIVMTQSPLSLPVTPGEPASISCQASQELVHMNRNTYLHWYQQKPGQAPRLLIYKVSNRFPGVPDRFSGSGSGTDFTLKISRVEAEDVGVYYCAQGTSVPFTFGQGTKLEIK" readoutlabel="fold change of affinity" unitslabel=fold datavalue=0.5
binder="H183/L072 VH G100hM (antibody, name in Kabat numbering, V domains shown) VH: QVQLVESGGGLVQPGRSLRLSCAASGFTFSNAWMHWVRQAPGKGLEWVAQIKDKGNAYAAYYAPSVKGRFTISRDDSKNSIYLQMNSLKTEDTAVYYCHYVHYASASTVLPAFMVDAWGQGTTVTVSS VL: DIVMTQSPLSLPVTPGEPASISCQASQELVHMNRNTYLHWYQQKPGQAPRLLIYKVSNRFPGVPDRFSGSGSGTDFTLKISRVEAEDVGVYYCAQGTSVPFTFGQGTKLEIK" readoutlabel="fold change of affinity" unitslabel=fold datavalue=0

Look up fold change of affinity for this binder: H183/L072 VH Y59E (antibody, name in Kabat numbering, V domains shown) VH: QVQLVESGGGLVQPGRSLRLSCAASGFTFSNAWMHWVRQAPGKGLEWVAQIKDKGNAYAAYEAPSVKGRFTISRDDSKNSIYLQMNSLKTEDTAVYYCHYVHYASASTVLPAFGVDAWGQGTTVTVSS VL: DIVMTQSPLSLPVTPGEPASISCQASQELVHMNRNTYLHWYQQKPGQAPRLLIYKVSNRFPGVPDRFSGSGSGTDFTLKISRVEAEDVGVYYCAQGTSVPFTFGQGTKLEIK
0.7

Data origin: patent US20210388087A1
